I'd appreciate it if you could supply pKd values for the items below.
- TESTED_SYSTEM: GDP-bound KRAS wild-type protein (Homo sapiens)
- PROCEDURE_DETAILS: Binding to KRAS by surface plasmon resonance (SPR), Single Cycle Kinetics
- TEST_SETTINGS: SPR, Single Cycle Kinetics, GDP-bound KRAS wild-type protein; read-out: KRAS KD
*1 amine or outer side, *2 acyl side, *3 side chain or, on linkers, in order; H or OH if unused. Where a SMILES comes first, the peptide text is derived from it. Bridges are numbered along the chain shown (N, C = ends). [ ]: non-standard residue; d: D form. The star is where a group is joined. hPhe(3-Cl-4-CF3) = N[C@@H](CCc1ccc(C(F)(F)F)c(Cl)c1)C(=O)O; X2 = CCCN([C@@H](COC1CCC1)C(=O)[*:2])[*:1]; NMeGly(cPent) = CN[C@H](C(=O)O)C1CCCC1; NMeD = CN[C@@H](CC(=O)O)C(=O)O; NMeL = CN[C@@H](CC(C)C)C(=O)O; Morpholide = C1CN(*)CCO1; Ac4c = NC1(C(=O)O)CCC1; Sar = CNCC(=O)O
Entry type: numeric. Quantity: pKd, the -log10 of concentration in molar units.

Request: May I ask what pKd has been recorded for `CCO[C@@H]1C[C@H]2C(=O)NC3(CCC3)C(=O)N(C)[C@@H](C(CC)CC)C(=O)N(C)[C@H](C(=O)N(C)C)CC(=O)N(C)[C@@H](CC(C)C)C(=O)N[C@@H]([C@@H](C)CC)C(=O)N(C)CC(=O)N(C)[C@H]3C/C=C\CCN(C3=O)[C@@H](Cc3ccc(C(F)(F)F)cc3)C(=O)N(C)CC(=O)N[C@@H](CCc3cc(F)c(C(F)(F)F)c(F)c3)C(=O)N2C1` ?
Response: 9.77

Request: Now give it for `CCO[C@@H]1C[C@H]2C(=O)NC3(CCC3)C(=O)N(C)[C@@H](C3CCCC3)C(=O)N(C)[C@H](C(=O)N(C)C)CC(=O)N(C)[C@@H](CC)C(=O)N[C@@H]([C@@H](C)CC)C(=O)N3C[C@H](OCC)C[C@H]3C(=O)N(C)[C@H]3C/C=C\CCN(C3=O)[C@@H](Cc3ccc(C(F)(F)F)cc3)C(=O)N(C)CC(=O)N[C@@H](CCc3cc(F)c(C(F)(F)F)c(F)c3)C(=O)N2C1` too.
Response: 9.51

Request: // repeat for `CCO[C@@H]1C[C@H]2C(=O)NC3(CCC3)C(=O)N(C)[C@@H](C3CCCC3)C(=O)N(C)[C@H](C(=O)N3CCOCC3)CC(=O)N(C)[C@@H](COC)C(=O)N[C@@H]([C@@H](C)CC)C(=O)NCC(=O)N(C)[C@H]3CCCCCN(C3=O)[C@@H](Cc3ccc(C(F)(F)F)cc3)C(=O)N(C)CC(=O)N[C@@H](CCc3cc(F)c(C(F)(F)F)c(F)c3)C(=O)N2C1` and report
Response: 9.18

Request: Repeat for the following compound: CCCN1C(=O)CN(C)C(=O)CN(C)C(=O)[C@H]([C@@H](C)CC)NC(=O)[C@H](CC(C)C)N(C)C(=O)C[C@@H](C(=O)N2CCOCC2)N(C)C(=O)[C@H](C2CCCC2)N(C)C(=O)C2(CCC2)NC(=O)[C@@H]2CCCN2C(=O)[C@H](CCc2ccc(C(F)(F)F)c(Cl)c2)NC(=O)CN(C)C(=O)[C@@H]1COC1CCC1 [PP1816] ([NMeL]I[Sar][Sar][X2][Sar][hPhe(3-Cl-4-CF3)]P[Ac4c][NMeGly(cPent)][NMeD]-Morpholide; lactam N-11)
Response: 8.92

Request: What about this compound? `CCO[C@@H]1C[C@H]2C(=O)NC3(CCC3)C(=O)N(C)[C@@H](C3CCCC3)C(=O)N(CCC3CCCC3)[C@H](C(=O)N(C)C)CC(=O)N(C)[C@@H](CC)C(=O)N[C@@H]([C@@H](C)CC)C(=O)N(C)CC(=O)N(C)[C@H]3C/C=C\CCN(C3=O)[C@@H](Cc3ccc(C(F)(F)F)cc3)C(=O)N(C)CC(=O)N[C@@H](CCc3cc(F)c(C(F)(F)F)c(F)c3)C(=O)N2C1`
Response: 9.00

* * *

- TESTED_SYSTEM: GDP-bound KRAS wild-type protein (Homo sapiens, UniProt P01116)
- Sequence (P01116 whole entry): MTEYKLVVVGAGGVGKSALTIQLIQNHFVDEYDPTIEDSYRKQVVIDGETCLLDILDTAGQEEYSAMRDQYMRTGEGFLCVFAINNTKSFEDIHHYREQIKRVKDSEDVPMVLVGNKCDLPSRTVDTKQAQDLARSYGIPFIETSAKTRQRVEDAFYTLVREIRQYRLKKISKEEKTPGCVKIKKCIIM
- PROCEDURE_DETAILS: Binding to KRAS by surface plasmon resonance (SPR), Single Cycle Kinetics
- TEST_SETTINGS: SPR, Single Cycle Kinetics, GDP-bound KRAS wild-type protein; read-out: KRAS KD
Consider the following molecules; for each one, report its pKd.
The meaning of pKd here: minus log10 of the concentration in molar units.

Request: Given the entry CCO[C@@H]1C[C@H]2C(=O)NC3(CC(C)(C)C3)C(=O)N(C)[C@@H](C(CC)CC)C(=O)N(C)[C@H](C(=O)N(C)C)CC(=O)N(C)[C@@H](CC)C(=O)N[C@@H]([C@@H](C)CC)C(=O)N(C)CC(=O)N(C)[C@H]3C/C=C\CCN(C3=O)[C@@H](Cc3ccc(C(F)(F)F)cc3)C(=O)N(C)CC(=O)N[C@@H](CCc3cc(F)c(C(F)(F)F)c(F)c3)C(=O)N2C1 [PP2062] , report its measured pKd.
Response: 9.72

Request: # iterate: CCO[C@@H]1C[C@H]2C(=O)NC3(CC(C)(C)C3)C(=O)N(C)[C@@H](C3CCCC3)C(=O)N(CC)[C@H](C(=O)N(C)C)CC(=O)N(C)[C@@H](CC)C(=O)N[C@@H]([C@@H](C)CC)C(=O)N(C)CC(=O)N(C)[C@H]3C/C=C\CCN(C3=O)[C@@H](Cc3ccc(C(F)(F)F)cc3)C(=O)N(C)CC(=O)N[C@@H](CCc3cc(F)c(C(F)(F)F)c(F)c3)C(=O)N2C1 [PP1768]
Response: 9.49

Request: Same question, C#CC[C@H]1C(=O)N[C@@H]([C@@H](C)CC)C(=O)N(C)CC(=O)N(C)[C@H]2C/C=C\CCN(C2=O)[C@@H](Cc2ccc(C(F)(F)F)cc2)C(=O)N(C)CC(=O)N[C@@H](CCc2ccc(C(F)(F)F)c(OC)c2)C(=O)N2C[C@@H](C)C[C@H]2C(=O)NC2(CC(C)(C)C2)C(=O)N(C)[C@@H](C2CCCC2)C(=O)N(C)[C@H](C(=O)N(C)CC)CC(=O)N1C [PP2055] this time
Response: 9.74

Request: Then what about the molecule CCO[C@@H]1C[C@H]2C(=O)N(C)C3(CCCC3)C(=O)N(C)[C@@H](C3CCCC3)C(=O)N(C)[C@H](C(=O)N(C)C)CC(=O)N(C)[C@@H](CC)C(=O)N[C@@H]([C@@H](C)CC)C(=O)N(C)CC(=O)N(C)[C@H]3C/C=C\CCN(C3=O)[C@@H](Cc3ccc(C(F)(F)F)cc3)C(=O)N(C)CC(=O)N[C@@H](CCc3cc(F)c(C(F)(F)F)c(F)c3)C(=O)N2C1 [PP1804] ?
Response: 10.25

Request: Same again, this time with CCCOC[C@H]1C(=O)N[C@@H]([C@@H](C)CC)C(=O)N(C)CC(=O)N(C)[C@H]2C/C=C\CCN(C2=O)[C@@H](Cc2ccc(C(F)(F)F)cc2)C(=O)N(C)CC(=O)N[C@@H](CCc2ccc(C(F)(F)F)c(OC)c2)C(=O)N2C[C@H](OCC)C[C@H]2C(=O)NC2(CC(C)(C)C2)C(=O)N(C)[C@@H](C2CCCC2)C(=O)N(C)[C@H](C(=O)N(C)C)CC(=O)N1C [PP1657]
Response: 10.22

Request: Another: CCO[C@@H]1C[C@H]2C(=O)NC3(CC(C)(C)C3)C(=O)N(C)[C@@H](C(CC)CC)C(=O)N(C)[C@H](C(=O)N(C)C)CC(=O)N(C)[C@@H](CC(C)C)C(=O)N[C@@H]([C@@H](C)CC)C(=O)N(C)CC(=O)N(C)[C@H]3C/C=C\CCN(C3=O)[C@@H](Cc3ccc(C(F)(F)F)cc3)C(=O)N(C)CC(=O)N[C@@H](CCc3ccc(C(F)(F)F)c(OC)c3)C(=O)N2C1 [PP2161]
Response: 9.70

Request: CCC[C@H]1C(=O)N[C@@H]([C@@H](C)CC)C(=O)N(C)CC(=O)N(C)[C@H]2C/C=C\CCN(C2=O)[C@@H](Cc2ccc(C(F)(F)F)cc2)C(=O)N(C)CC(=O)N[C@@H](CCc2ccc(C(F)(F)F)c(OC)c2)C(=O)N2C[C@H](OCC)C[C@H]2C(=O)NC2(CC(C)(C)C2)C(=O)N(C)[C@@H](C2CCCC2)C(=O)N(C)[C@H](C(=O)N(C)CC)CC(=O)N1C [PP1676]
Response: 9.92

Request: And for CCO[C@@H]1C[C@H]2C(=O)NC3(CCC3)C(=O)N(C)[C@@H](C3CCCC3)C(=O)N(C)[C@H](C(=O)N(C)C)CC(=O)N(C)[C@@H](CC3CCCC3)C(=O)N[C@@H]([C@@H](C)CC)C(=O)N(C)CC(=O)N(C)[C@H]3C/C=C\CCN(C3=O)[C@@H](Cc3ccc(C(F)(F)F)cc3)C(=O)N(C)CC(=O)N[C@@H](CCc3cc(F)c(C(F)(F)F)c(F)c3)C(=O)N2C1 [PP1112] ?
Response: 10.22

Request: Can you check C#CC[C@H]1C(=O)N[C@@H]([C@@H](C)CC)C(=O)N(C)CC(=O)N(C)[C@H]2C/C=C\CCN(C2=O)[C@@H](Cc2ccc(C(F)(F)F)cc2)C(=O)N(C)CC(=O)N[C@@H](CCc2ccc(C(F)(F)F)c(OC)c2)C(=O)N2C[C@H](OCC)C[C@H]2C(=O)NC2(CC(C)(C)C2)C(=O)N(C)[C@@H](C2CCCC2)C(=O)N(C)[C@H](C(=O)N(C)CCC)CC(=O)N1C [PP2053] next?
Response: 9.89

Request: Repeat with CC[C@H](C)[C@@H]1NC(=O)[C@H](CC)N(C)C(=O)C[C@@H](C(=O)N(C)C)N(C)C(=O)[C@H](C2CCCC2)N(C)C(=O)C2(CCC2)N(C)C(=O)[C@@H]2CCCN2C(=O)[C@H](CCc2cc(F)c(C(F)(F)F)c(F)c2)NC(=O)CN(C)C(=O)[C@H](Cc2ccc(C(F)(F)F)cc2)N2CC/C=C\C[C@@H](C2=O)N(C)C(=O)CN(C)C1=O [PP1780]
Response: 10.19

Request: Another molecule to look at: CCO[C@@H]1C[C@H]2C(=O)NC3(CCC3)C(=O)N(C)[C@@H](C3CCCC3)C(=O)N(C)[C@H](C(=O)N(C)C)CC(=O)N(C)[C@H]3CCCCCc4ccc(cc4)C[C@@H](C(=O)N(C)CC(=O)N[C@@H](CCc4ccc(C(F)(F)F)c(OC)c4)C(=O)N2C1)N1CC/C=C\C[C@@H](C1=O)N(C)C(=O)CN(C)C(=O)[C@H]([C@@H](C)CC)NC3=O [PP2262]
Response: 9.62
